# System: M14
# Assay method text: NCI tumour cell line growth inhibition, 48 h
Activity calls are given as the source filed them. Rule as the data show it: active = GI50 up to about 1.1 µM and inactive = higher.
Property: GI50

Dear reader, for each entry below, please note its GI50.
1. CC1C(C)(C)C23CC12C1(OCCO1)C3Br (stereo not given)
2. CC12CC[C@H](O)C(C)(C)[C@H]1CC[C@](C)(O)C2COc1ccc2ccc(=O)oc2c1 (stereo not given in full)
3. CC(C)COC(c1ccc2c(c1)OCO2)C(C)Br (stereo not given)
4. C=C1CC[C@@H]2[C@](C)(COC(=O)CCC(=O)OC)CCC[C@@]2(C)[C@@H]1CCC1=CC(=O)OC1
5. Cc1ccc(/C=C2\CCS(=O)(=O)c3ccccc3C2=O)cc1

**Result**
> 100 µM (inactive)
> 100 µM (inactive)
21.1 µM (inactive)
> 100 µM (inactive)
26.1 µM (inactive)

List the reported GI50 of each compound below.
1. COc1cc(-c2cc(O)c(-c3ccc4ccccc4n3)c(O)n2)cc(OC)c1OC
2. CC1OC(n2cc(I)c(=O)[nH]c2=O)C=CC1=O (stereo not given)
3. CC(=O)c1ccc(NC(=O)COC(=O)c2cccc3c(=O)c4ccccc4[nH]c23)cc1
4. C=C1c2c(cc3c(c2O)c(=O)c2ccccc2n3C)OC1(C)C
5. Cc1cc(C)nc(NS(=O)(=O)c2ccc(Nc3c4ccccc4nc4c(C(=O)NCCO)cccc34)cc2)n1

**Result**
1. 25.4 µM (inactive)
2. 16.9 µM (inactive)
3. 31.4 µM (inactive)
4. > 100 µM (inactive)
5. 31.1 µM (inactive)

----------
# Tested on: UACC-257
# Assay method text: NCI tumour cell line growth inhibition, 48 h
Active and inactive are the calls of the source. Cut-off read from the data, not from the text of the source: active = GI50 up to about 1.1 µM and inactive = higher.
Property: GI50

Example cases with answers are listed next.
COc1cc(C2C(C(=O)O)=C(COC(C)=O)Oc3cc4c(cc32)OCO4)cc(OC)c1OC (stereo unspecified) ... > 100 µM (inactive)
CN(C)CCNC(=O)c1cccc2[nH]c(-c3ccccc3)nc12 ... 16.9 µM (inactive)
Cc1ccc(/C=C2\CCCc3ccccc3C2=O)cc1 ... 21.9 µM (inactive)
O=C(CSc1nnc(Cc2ccccc2)o1)Nc1cccc(Cl)c1 ... > 100 µM (inactive)
c1c2c(cc(-n3nnc4c3CCCCCC4)c1-n1nnc3c1CCCCCC3)CCCCCC2 ... 11.7 µM (inactive)
COc1ccc(NC(=O)CC(=O)N2N=C(c3ccccc3)C(/N=N/c3ccc(S(=O)(=O)CCOS(=O)(=O)O)cc3)C2=O)cc1 (stereo unspecified) ... > 100 µM (inactive)
O=C(NNC(=O)c1cc(/C=C/c2cccc([N+](=O)[O-])c2)nc(S)n1)Nc1ccc(Cl)cc1 ... 91 µM (inactive)
COC(=O)NN1C(C)=C(C(=O)OC)C2(CCOC2=O)C1(C)O (stereo unspecified) ... > 100 µM (inactive)
CC(=O)OCC1OC(n2c(C)c(/N=N/c3ccccc3)c(C)c(C#N)c2=S)C(OC(C)=O)C(OC(C)=O)C1OC(C)=O (stereo unspecified) ... > 100 µM (inactive)
COP(=O)(OC)c1ccc(NCc2cc(O)ccc2O)cc1 ... 22.2 µM (inactive)

// each listed compound needs a value for GI50
1. Nc1nc2c(=O)c3ccccc3sc2s1
2. Cn1cc[n+](-c2cc(=O)n(C)c(=O)[n-]2)c1

**Result**
1: 54.2 µM (inactive); 2: > 100 µM (inactive)

Fill in GI50 for each of the 6 compounds listed.
1. O=C(O)C(C(=O)C(=O)C(C(=O)O)c1ccc(Cl)cc1)c1ccc(Cl)cc1 (stereo unspecified)
2. NC1CC(=O)c2cc(Br)sc21 (stereo unspecified)
3. Clc1ccc(C(SCc2ccccc2)SCc2ccccc2)cc1
4. Nc1ccc(-c2nnc(-c3c(Cl)c(Cl)c(Cl)c(Cl)c3-c3nc4cc(C(=O)c5ccccc5)ccc4[nH]3)o2)cc1
5. CN(C(=O)Cc1ccc(Cl)c(Cl)c1)[C@@H]1CCCC[C@H]1[N+]1(C)CC=CC1
6. NC1=NCC(CN2CCOCC2)O1 (stereo unspecified)

**Result**
2.75 µM (inactive)
> 100 µM (inactive)
> 10 µM (inactive)
48.4 µM (inactive)
> 100 µM (inactive)
> 100 µM (inactive)
